Tested on: Staphylococcus aureus
Test: Antibacterial activity against methicillin-resistant Staphylococcus aureus ATCC 43300 after 8 to 12 hrs by colorimetric microdilution broth technique
Type: functional
RECORDED ENDPOINT: MIC (µg/mL)
Give the quantity in µg/mL, number only.

Here is how some compounds turned out for MIC.
compound_smiles=CCOc1ccc(/C=C/c2ccc3ccccc3[n+]2C)cc1.COc1ccc(S(=O)(=O)[O-])cc1 reading=2.34
compound_smiles=CN(C)c1ccc(/C=C/c2cccc[n+]2C)cc1.O=S(=O)([O-])c1ccc(Cl)cc1 reading=37.5
compound_smiles=CN(C)c1ccc(/C=C/c2ccc3ccccc3[n+]2C)cc1.COc1ccc(S(=O)(=O)[O-])cc1 reading=2.34
compound_smiles=CCOc1ccc(/C=C/c2cccc[n+]2C)cc1.O=S(=O)([O-])c1ccc(Br)cc1 reading=18.8
compound_smiles=CCOc1ccc(/C=C/c2cccc[n+]2C)cc1.COc1ccc(S(=O)(=O)[O-])cc1 reading=150

input: For Staphylococcus aureus, provide MIC of `CCOc1ccc(/C=C/c2ccc3ccccc3[n+]2C)cc1.O=S(=O)([O-])c1ccc(Br)cc1` please.
output: 2.34

input: For Staphylococcus aureus, provide MIC of `CN(C)c1ccc(/C=C/c2cccc[n+]2C)cc1.Nc1ccc(S(=O)(=O)[O-])cc1` please.
output: 37.5

The reported measurements were obtained from ChEMBL document CHEMBL1240464.
